Biological target: T1, biotinylated N-glycopeptide A3Man (AVSHN(M3N2)ASLE) (also: biotinylated, position not given here)
T1 peptide: AVSHN(M3N2)ASLE
Assay: BLI
No end group written: not given here. M3N2 = N-glycan
Reported Metric: pKd
Schema: pKd number; meaning minus log10 of the concentration expressed in molar units.

*Q* Entry Variant Fbs1-7 (designed binder) MGSSHHHHHHHHSSGENLYFQSHMASQQEGLVPEGSADEERDHWQQFYFLSKRRRNLLRNPCGEEDLEGWSDVEHGGDGWRVERLPGDGGVEFTQDDSVKKYFASSYRWCRKAQVIDLQAEGYWEELLDTTQPAIVVKDWYSGRTDAGSLYELTVRLLSENEDVLAEFATGQVAVPEDGSWMEISHTFIDYGPGVRFVRFEHGGQDSVYWKGWFGARVTNSSVWVEP : reported pKd = ?
*A* 6.07

*Q* Entry Variant Fbs1-2 (designed binder) MGSSHHHHHHHHSSGENLYFQSHMASQQEGLVPEGSADEERDHWQQFYFLSKRRRNLLRNPCGEEDLEGWSDVEHGGDGWRVEELPGDNGVEFTQDDSVKKYFASSYRWCRKAQVIDLQAEGYWEELLDTTQPAIVVKDWYSGRTDAGSLYELTVRLLSENEDVLAEFATGQVAVPEDGSWMEISHTFIDYGPGVRFVRFEHGGQDSVYWKGWFGARVTNSSVWVEP : reported pKd = ?
*A* 6.21

*Q* Entry Variant Fbs1-6 (designed binder) MGSSHHHHHHHHSSGENLYFQSHMASQQEGLVPEGSADEERDHWQQFYFLSKRRRNLLRNPCGEEDLEGWSDVEHGGDGWRVRELPGDGGVEFTQDDSVKKYFASSYRWCRKAQVIDLQAEGYWEELLDTTQPAIVVKDWYSGRTDAGSLYELTVRLLSENEDVLAEFATGQVAVPEDGSWMEISHTFIDYGPGVRFVRFEHGGQDSVYWKGWFGARVTNSSVWVEP : reported pKd = ?
*A* 6.70

*Q* Entry Variant Fbs1-1 (designed binder) MGSSHHHHHHHHSSGENLYFQSHMASQQEGLVPEGSADEERDHWQQFYFLSKRRRNLLRNPCGEEDLEGWSDVEHGGDGWRVEELPGDNGVEFTQDDSVKKYFASSFEWCRKAQVIDLQAEGYWEELLDTTQPAIVVKDWYSGRTDAGSLYELTVRLLSENEDVLAEFATGQVAVPEDGSWMEISHTFIDYGPGVRFVRFEHGGQDSVYWKGWFGARVTNSSVWVEP : reported pKd = ?
*A* 5.37
